Reported values of growth for individual entries
Tested on: SK-MEL-5 melanoma
Experiment: NCI-60 one-dose screen, 48 h (100 = growth as untreated, 0 = no growth, -100 = all killed)
Details: 10 µM
Compounds without any hit were thinned out: in the full panel of roughly 83,000, 20% have a hit. Active and inactive are the calls of the source. Rule for the calls: active = growth percent below 10; inactive = the rest.

[[record]]
molecule = "Cc1ncc(-c2ccoc2)c(NC2CCCCCC2)n1"
result_type = "growth"
experimental_result = "99.6% (inactive)"

[[record]]
molecule = "ClC(Cl)(Cl)c1nc2nccnc2[nH]1"
result_type = "growth"
experimental_result = "113% (inactive)"

[[record]]
molecule = "O=C1/C(=C/c2ccc(Cl)cc2)SC(=Nc2ccc(Cl)cc2)N1Cc1nc2ccccc2[nH]1"
result_type = "growth"
experimental_result = "81.3% (inactive)"


(Q) Would you mind telling me what growth value was observed for `COc1cc(-c2cc(C(=O)N3CCN(C(=O)c4ccccc4NCc4cccs4)CC3)nc3cc(-c4ccccc4)nn23)cc(OC)c1OC` ?
(A) 37.9% (inactive)

(Q) Would you mind telling me what growth value was observed for `COc1ccc(-n2c(SCc3cc(OC)c(OC)c(OC)c3)nc3ccc(C)cc3c2=O)cc1` ?
(A) 54.9% (inactive)

(Q) Would you mind telling me what growth value was observed for `COc1ccc2c(c1)C(=O)c1c-2c(OCCN2CCCCC2)nc2ccc(OC)cc12` ?
(A) 22.1% (inactive)

(Q) Would you mind telling me what growth value was observed for `C/C(=N\Nc1nc2ccccc2s1)c1ccncn1` ?
(A) 31.4% (inactive)

* * *

Test system: UO-31 renal
Assay: NCI-60 one-dose screen, 48 h (100 = growth as untreated, 0 = no growth, -100 = all killed)
Conditions: 10 µM
The panel holds about 83,000 compounds, 20% with a hit somewhere; the sample as a whole holds those more often.
Binary classification by growth, with 60% as an inclusive lower bound for Y; all other cases are N.

// known answers, use as guide
[[record]]
compound = "CN(C)CCN1C(=O)c2cccc3cc(N)cc(c23)C1=O"
assigned_label = "N"

[[record]]
compound = "CN1CCC(CNc2cc(C3(C(=O)Nc4cc(C(=O)Nc5ccc(Cl)c(C(F)(F)F)c5)ccc4F)CC3)ncn2)CC1"
assigned_label = "N"

[[record]]
compound = "CCCN(CCC)CCC(O)c1cc2c(c3ccccc13)CCCC2 (stereo not given)"
assigned_label = "Y"

[[record]]
compound = "O=S(=O)(NCCNc1nccc(-c2c(-c3ccc(F)cc3)nc3sccn23)n1)c1ccc2ccccc2c1"
assigned_label = "N"

[[record]]
compound = "NC1=NC(=O)C(c2ccccc2)(c2ccccc2)S1"
assigned_label = "Y"


(Q) # check: growth of `CC/C(=N\N=C(/CC)c1ccc(Br)cc1)c1ccc(Br)cc1` is greater than or equal to 60%
(A) Y

(Q) # check: growth of `O=C(Nc1ccc(OS(=O)(=O)c2ccccc2)cc1)C12CC3CC(CC(C3)C1)C2` is greater than or equal to 60%
(A) N

(Q) # check: growth of `CC12O[C@H](C[C@@H](O)[C@H]1O)n1c3ccccc3c3c4c(c5c6ccccc6n2c5c31)C(=O)N(CCCN)C4=O` is greater than or equal to 60%
(A) N

(Q) # check: growth of OCC1OC(n2cnc3c(N/N=C\c4ccccn4)ncnc32)C(O)C1O (stereo not given) is greater than or equal to 60%
(A) N
